system.tested: Lethal(3)malignant brain tumor-like protein 3 (Homo sapiens, UniProt Q96JM7)
Sequence (Q96JM7 whole entry): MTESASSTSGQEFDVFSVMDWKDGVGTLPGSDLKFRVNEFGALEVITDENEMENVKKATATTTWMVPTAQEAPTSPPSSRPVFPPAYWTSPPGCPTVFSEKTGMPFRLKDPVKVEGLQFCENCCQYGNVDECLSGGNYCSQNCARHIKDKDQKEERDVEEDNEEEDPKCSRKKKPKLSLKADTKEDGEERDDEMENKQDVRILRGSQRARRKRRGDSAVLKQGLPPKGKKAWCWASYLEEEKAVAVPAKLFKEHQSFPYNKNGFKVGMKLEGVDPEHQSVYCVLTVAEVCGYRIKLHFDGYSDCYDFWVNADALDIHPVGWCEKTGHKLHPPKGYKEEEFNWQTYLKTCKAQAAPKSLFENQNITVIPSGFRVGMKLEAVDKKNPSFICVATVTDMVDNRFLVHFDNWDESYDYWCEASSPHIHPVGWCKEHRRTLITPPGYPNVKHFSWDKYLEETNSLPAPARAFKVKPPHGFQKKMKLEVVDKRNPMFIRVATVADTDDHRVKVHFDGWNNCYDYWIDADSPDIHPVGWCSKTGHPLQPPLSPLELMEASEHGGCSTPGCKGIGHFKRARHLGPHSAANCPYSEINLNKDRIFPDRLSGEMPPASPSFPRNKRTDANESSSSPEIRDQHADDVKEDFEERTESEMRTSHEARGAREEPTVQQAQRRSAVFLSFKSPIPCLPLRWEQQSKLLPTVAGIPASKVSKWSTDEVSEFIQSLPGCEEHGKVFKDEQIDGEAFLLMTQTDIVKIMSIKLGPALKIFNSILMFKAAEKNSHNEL
measurement.notes: Inhibition of L3MBTL3 (unknown origin) using H4K20me2 as substrate after 30 mins by LNCE-TR-FRET assay
Category key, based on recorded IC50: I: < 100 nM; II: ≥ 100 nM and < 300 nM; III: ≥ 300 nM

>>> cat("O=C(c1ccc(C(=O)N2CCC(N3CCCC3)CC2)cc1)N1CCC(C2CCNCC2)CC1")
"III"
>>> cat("O=C(c1ccc(C(=O)N2CCC(N3CCCC3)CC2)cc1)N1CCC(N2CCCCCC2)CC1")
"II"
>>> cat("Cc1cc(C(=O)N2CCC(N3CCCC3)CC2)c(C)cc1C(=O)N1CCC(N2CCCC2)CC1")
"II"
>>> cat("O=C(c1cccc(C(=O)N2CCC(N3CCCC3)CC2)c1)N1CCC(N2CCCC2)CC1")
"II"
>>> cat("O=C(c1ccc(N2CCC(N3CCCC3)CC2)cc1)N1CCC(N2CCCC2)CC1")
"II"
>>> cat("O=C(c1ccc(C(=O)N2CC3CCC(C2)C3N2CCCC2)cc1)N1CC2CCC(C1)C2N1CCCC1 (configuration not stated)")
"II"
>>> cat("O=C(c1ccc(C(=O)N2CCC(N3CCCC3)CC2)c(NCc2ccccc2)c1)N1CCC(N2CCCC2)CC1")
"I"
>>> cat("O=C(c1ccc(C(=O)N2CCC(N3CCCC3)CC2)c2ccccc12)N1CCC(N2CCCC2)CC1")
"I"
>>> cat("CN1CCC(N2CCN(C(=O)c3ccc(C(=O)N4CCC(N5CCCC5)CC4)cc3)CC2)CC1")
"III"
>>> cat("O=C(c1ccc(C(=O)N2CCC(N3CCCCC3)CC2)cc1)N1CCC(N2CCCCC2)CC1")
"III"
>>> cat("O=C(c1cncc(Br)c1)N1CCC(N2CCCC2)CC1")
"III"
>>> cat("O=C(c1ccc(C(=O)N2CCC(N3CCCC3)C2)cc1)N1CCC(N2CCCC2)CC1 (configuration not stated)")
"II"
>>> cat("CCN1Cc2ccc(NC(=O)c3ccc(C(=O)N4CCC(N5CCCC5)CC4)cc3)cc2C1")
"III"
>>> cat("O=C(NCCCN1CCCC1)c1ccc(C(=O)N2CCC(N3CCCC3)CC2)cc1")
"III"
>>> cat("Nc1cc(C(=O)N2CCC(N3CCCC3)CC2)ccc1C(=O)N1CCC(N2CCCC2)CC1")
"II"
>>> cat("O=C(c1ccc(C(=O)N2CCC(N3CCCC3)CC2)o1)N1CCC(N2CCCC2)CC1")
"III"
>>> cat("O=C(c1ccc(C(=O)N2CC3CNCC3C2)cc1)N1CCC(N2CCCC2)CC1 (configuration not stated)")
"III"
>>> cat("O=C(c1ccc(C(=O)N2CCC(N3CCCC3)CC2)c(C(=O)N2CCC(N3CCCC3)CC2)c1)N1CCC(N2CCCC2)CC1")
"II"
>>> cat("C[N+]1(C2CCN(C(=O)c3ccc(C(=O)N4CCC(N5CCCC5)CC4)cc3)CC2)CCCC1")
"I"
>>> cat("O=C(c1ccc(C(=O)N2CCC(N3CCCC3)CC2)cc1)N1CCC(C2CCCN2)CC1 (configuration not stated)")
"I"
>>> cat("CC(C1CCN(C(=O)c2ccc(C(=O)N3CCC(N4CCCC4)CC3)cc2)CC1)N1CCN(C)CC1 (configuration not stated)")
"II"
>>> cat("O=C(c1ccc(C(=O)N2CCCC(N3CCCC3)CC2)cc1)N1CCCC(N2CCCC2)CC1 (configuration not stated)")
"II"
>>> cat("O=C(c1ccc(CN2CCC(N3CCCC3)CC2)cc1)N1CCC(N2CCCC2)CC1")
"II"
>>> cat("O=C(c1ccc(C(=O)N2CCC(C3CCCN3)CC2)cc1)N1CCC(C2CCCN2)CC1 (configuration not stated)")
"III"
>>> cat("O=C(c1ccc(C(=O)N2CCC(N3CCCC3)CC2)c(Cc2ccccc2)c1)N1CCC(N2CCCC2)CC1")
"I"
>>> cat("O=C(c1ccccc1C(=O)N1CCC(N2CCCC2)CC1)N1CCC(N2CCCC2)CC1")
"III"
>>> cat("O=C(c1ccc(C(=O)N2CCC3(CCNC3)CC2)cc1)N1CCC(N2CCCC2)CC1")
"III"
>>> cat("CCN1Cc2ccc(NC(=O)c3ccc(C(=O)N4CCC(C5CCCN5)CC4)cc3Nc3ccccc3)cc2C1 (configuration not stated)")
"II"
>>> cat("CCN1Cc2ccc(NC(=O)c3ccc(C(=O)N4CC5CCC(C4)C5N4CCCC4)cc3)cc2C1 (configuration not stated)")
"II"
>>> cat("CN(C)C1CCN(C(=O)c2ccc(C(=O)N3CCC(N4CCCC4)CC3)cc2)CC1")
"II"
>>> cat("O=C(c1ccc(C(=O)N2CCC(N3CCCC3)CC2)c(Oc2ccccc2)c1)N1CCC(N2CCCC2)CC1")
"I"
>>> cat("O=C(c1ccc(C(=O)N2CCC(N3CCCC3)CC2)c(-c2ccccc2)c1)N1CCC(N2CCCC2)CC1")
"I"
>>> cat("O=C(c1c(F)c(F)c(C(=O)N2CCC(N3CCCC3)CC2)c(F)c1F)N1CCC(N2CCCC2)CC1")
"II"
>>> cat("O=C(c1ccc(C(=O)N2CCC(N3CCCC3)CC2)cc1)N1CCC(N2CCCCC2)CC1")
"II"
>>> cat("O=C(c1ccc(C(=O)N2CCC(N3CCCC3)CC2)cc1)N1CCCC(N2CCCC2)CC1 (configuration not stated)")
"I"
>>> cat("CN1CCN2CC(NC(=O)c3ccc(C(=O)N4CCC(N5CCCC5)CC4)cc3)CC2C1 (configuration not stated)")
"III"
>>> cat("O=C(c1ccc(C(=O)N2CCC(N3CCCC3)CC2)c(Nc2ccccc2)c1)N1CCC(N2CCCC2)CC1")
"I"
